Target: Transitional endoplasmic reticulum ATPase (Homo sapiens) (UniProt P55072)
Sequence (P55072 whole entry, looked up): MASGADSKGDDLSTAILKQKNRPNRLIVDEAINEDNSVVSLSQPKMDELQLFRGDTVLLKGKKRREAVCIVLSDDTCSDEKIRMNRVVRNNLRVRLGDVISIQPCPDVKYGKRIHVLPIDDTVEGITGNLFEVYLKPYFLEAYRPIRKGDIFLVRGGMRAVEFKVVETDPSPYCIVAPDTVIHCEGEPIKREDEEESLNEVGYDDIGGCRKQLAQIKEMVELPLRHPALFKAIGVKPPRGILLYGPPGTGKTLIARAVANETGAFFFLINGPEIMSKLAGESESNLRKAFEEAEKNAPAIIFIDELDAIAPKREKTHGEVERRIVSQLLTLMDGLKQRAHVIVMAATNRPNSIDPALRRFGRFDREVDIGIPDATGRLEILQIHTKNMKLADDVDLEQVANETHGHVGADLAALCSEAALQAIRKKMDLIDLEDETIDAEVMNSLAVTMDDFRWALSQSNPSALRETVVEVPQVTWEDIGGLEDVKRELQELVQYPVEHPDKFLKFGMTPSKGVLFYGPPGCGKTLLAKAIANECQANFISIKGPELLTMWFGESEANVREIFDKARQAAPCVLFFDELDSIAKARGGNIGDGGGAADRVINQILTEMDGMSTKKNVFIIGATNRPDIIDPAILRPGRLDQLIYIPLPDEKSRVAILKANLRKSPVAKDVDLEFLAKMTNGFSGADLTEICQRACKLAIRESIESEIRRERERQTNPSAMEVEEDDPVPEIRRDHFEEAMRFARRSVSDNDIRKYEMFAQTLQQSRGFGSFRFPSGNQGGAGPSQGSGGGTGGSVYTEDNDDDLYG
Test: p97 ATP hydrolysis blockers – biochemical, primary screen (AID 1481);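 also: 0% = DMSO vehicle and 100% = wells lacking enzyme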
Conditions: recombinant p97 ATPase, Kinase-Glo ATP luminescence, 3 h; at 8 µM
The campaign covered roughly 220,000 compounds. About 920 (0.42%) were called active. Rule as the data show it: active = inhibition above about 15%; inactive = the rest. The sample holds actives, similar compounds and a random draw of the others, so the mix is not that of the screen.
Answer with one of the outcomes t for active, f for inactive

Please review the following examples before continuing.
>  <Smiles record>
CCN(CC)CCNC(=O)CCCCCn1c(=O)[nH]c2cc(C(=O)OC)ccc2c1=O

>  <System tested>
Transitional endoplasmic reticulum ATPase (Homo sapiens) (UniProt P55072)

>  <Assigned class>
t

$$$$
>  <Smiles record>
CCOC(=O)c1ccccc1C(=O)N1CCOCCOCCOCC1

>  <System tested>
Transitional endoplasmic reticulum ATPase (Homo sapiens) (UniProt P55072)

>  <Assigned class>
f

$$$$
>  <Smiles record>
CCCCN1C(=O)/C(=C/C=C2/C=Cc3ccccc3N2CC)SC1=S

>  <System tested>
Transitional endoplasmic reticulum ATPase (Homo sapiens) (UniProt P55072)

>  <Assigned class>
f

$$$$
>  <Smiles record>
Cc1cc(C(C)(C)C)cc(C)c1N

>  <System tested>
Transitional endoplasmic reticulum ATPase (Homo sapiens) (UniProt P55072)

>  <Assigned class>
f

$$$$

Input: Write down the call the test reported for this compound. Item: `Cc1no[n+]([O-])c1COc1ccccc1/C=C1\NC(=S)NC1=O`
Output: t

Input: Write down the call the test reported for this compound. Item: `O=C(CCCn1c(=O)[nH]c2cc(Cl)ccc2c1=O)NCCN1CCN(c2ccccc2)CC1`
Output: f

###

Target: Transitional endoplasmic reticulum ATPase (Homo sapiens) (UniProt P55072)
Assay: p97 ATP hydrolysis blockers – biochemical, primary screen (AID 1481);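 also: 0% = DMSO vehicle and 100% = wells lacking enzyme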
Details: recombinant p97 ATPase, Kinase-Glo ATP luminescence, 3 h; at 8 µM; stronger effect = higher value
Out of some 220,000 compounds screened, about 920 (0.42%) were called active. The sample holds actives, similar compounds and a random draw of the others, so the mix is not that of the screen.
Property: inhibition (%)
Expressed in %, but write only the number.

As a guide, the following entries are already answered.
>  <Molecule>
Nn1c(SCC(=O)Nc2nccs2)nncc1=O

>  <System tested>
Transitional endoplasmic reticulum ATPase (Homo sapiens) (UniProt P55072)

>  <Property>
inhibition

>  <Number>
3.78

$$$$
>  <Molecule>
CCC(=O)OCCNc1nc(-c2ccccc2)nc2ccccc12

>  <System tested>
Transitional endoplasmic reticulum ATPase (Homo sapiens) (UniProt P55072)

>  <Property>
inhibition

>  <Number>
4.18

$$$$

// inhibition value for `O=C(NCCCO)/C(=C\C=C\c1ccccc1)NC(=O)c1ccccc1Cl` : 6.57

// inhibition value for `Cc1ccc(C(=O)N/C(=C/c2cccs2)C(=O)N2CCCCC2)cc1` : 1.51

// inhibition value for CC(Oc1ccccc1F)C(=O)NN (centres undefined) : -4.14

// inhibition value for `CCOC(=O)c1nnn(-c2nc(OC)nc(N(C)C)n2)c1-c1ccccc1` : -0.37

// inhibition value for `COc1ccc(C(=O)O/N=C(\N)Cc2ccc(Cl)cc2Cl)cc1OC` : -0.33

// inhibition value for `NC(N)=N/N=C/c1ccc(Cl)c([N+](=O)[O-])c1` : 4.25

###

Target: Transitional endoplasmic reticulum ATPase (Homo sapiens) (UniProt P55072)
Assay: p97 ATP hydrolysis blockers – biochemical, primary screen (AID 1481);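 also: 0% = DMSO vehicle and 100% = wells lacking enzyme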
Details: recombinant p97 ATPase, Kinase-Glo ATP luminescence, 3 h; at 8 µM
The campaign covered roughly 220,000 compounds. About 920 (0.42%) were called active. No stated cut-off is given here; in the data, active means inhibition above about 15%; inactive means the rest. What follows is part of a selection rich in actives, with near analogues and random picks from the rest.
Answer with one of the outcomes 1 = active, 0 = inactive

Please review the following examples before continuing.
>  <Molecule>
S=c1[nH]nc(-c2ccc(Cl)cc2)n1CC1CCCO1 (centres undefined)

>  <System tested>
Transitional endoplasmic reticulum ATPase (Homo sapiens) (UniProt P55072)

>  <Assigned class>
0

$$$$
>  <Molecule>
COc1ccc(C(C(=O)NC2CCCCC2)N(C(=O)Cc2c[nH]c3ccccc23)c2ccccc2)cc1OC (centres undefined)

>  <System tested>
Transitional endoplasmic reticulum ATPase (Homo sapiens) (UniProt P55072)

>  <Assigned class>
1

$$$$
>  <Molecule>
CCOC(=O)CCCN1CC(O)=C(c2nc3ccccc3s2)C1=N

>  <System tested>
Transitional endoplasmic reticulum ATPase (Homo sapiens) (UniProt P55072)

>  <Assigned class>
0

$$$$
>  <Molecule>
O=C(/C=C/c1ccc(N2CCOCC2)cc1)c1ccccc1

>  <System tested>
Transitional endoplasmic reticulum ATPase (Homo sapiens) (UniProt P55072)

>  <Assigned class>
0

$$$$
>  <Molecule>
O=C(CC1N=C2c3ccccc3N=C(SCc3ccccc3Cl)N2C1=O)NCc1ccco1 (centres undefined)

>  <System tested>
Transitional endoplasmic reticulum ATPase (Homo sapiens) (UniProt P55072)

>  <Assigned class>
0

$$$$

Input: Write down the call the test reported for this molecule. Item: Cc1cc(NC(=O)CCC(=O)N(c2ccccc2)C(C(=O)NC2CCCC2)c2ccncc2)no1 (centres undefined)
Output: 0

Input: Write down the call the test reported for this molecule. Item: `COc1ccc(-c2[nH]ncc2/C=N/NC(=O)c2cc(Br)ccc2O)c(OC)c1`
Output: 1

Input: Write down the call the test reported for this molecule. Item: O=C(CSC1=Nc2ccccc2C2=NC(CC(=O)NCc3ccco3)C(=O)N12)NCc1ccco1 (centres undefined)
Output: 0

Input: Write down the call the test reported for this molecule. Item: CC(CC(=O)Nc1ccccc1)n1ccnc1 (centres undefined)
Output: 0

Input: Write down the call the test reported for this molecule. Item: `Cc1ccc(/C=N/NC(=O)COc2ccccc2-c2ccccc2)cc1`
Output: 0

Input: Write down the call the test reported for this molecule. Item: `Cc1ccc(S(=O)(=O)CC(=O)Nc2c(C)n(C)n(-c3ccccc3)c2=O)cc1`
Output: 0

Input: Write down the call the test reported for this molecule. Item: `C/C=N/N(c1ccccc1)c1ccccc1`
Output: 0

Input: Write down the call the test reported for this molecule. Item: CCC(C)NC(=O)CSC1=Nc2ccccc2C2=NC(CCC(=O)NCc3ccco3)C(=O)N12 (centres undefined)
Output: 1

Input: Write down the call the test reported for this molecule. Item: `N#Cc1c(-c2ccc(F)cc2)nc(-c2ccccc2)[nH]c1=O`
Output: 0

Input: Write down the call the test reported for this molecule. Item: `COc1ccc(CC(=O)NCC(=O)N/N=C/c2cc(Br)ccc2OC)cc1`
Output: 0

Input: Write down the call the test reported for this molecule. Item: O=C(c1[nH]ncc1-c1ccc(Cl)cc1)C1CO1 (centres undefined)
Output: 1

Input: Write down the call the test reported for this molecule. Item: `CN(C)c1ccc(NC(=O)CSc2n[nH]c(-c3ccco3)n2)cc1`
Output: 0

###

Biological target: Transitional endoplasmic reticulum ATPase (Homo sapiens)
Assay: p97 ATP hydrolysis blockers – biochemical, primary screen (AID 1481);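 also: 0% = DMSO vehicle and 100% = wells lacking enzyme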
Conditions: recombinant p97 ATPase, Kinase-Glo ATP luminescence, 3 h; at 8 µM; stronger effect = higher value
Out of some 220,000 compounds screened, about 920 (0.42%) were called active. This is one part of a sample in which actives are shown more often than they occur.
Property: inhibition (%)
Expressed in %, but write only the number.

As a guide, the following entries are already answered.
>  <Smiles record>
CN1CCN(c2ccc(S(=O)(=O)N3CCOCC3)cc2NC(=O)CCc2ccccc2)CC1

>  <System tested>
Transitional endoplasmic reticulum ATPase (Homo sapiens)

>  <Scale unit>
%

>  <inhibition>
4

$$$$
>  <Smiles record>
Nc1nnnn1/N=C/c1cc([N+](=O)[O-])ccc1O

>  <System tested>
Transitional endoplasmic reticulum ATPase (Homo sapiens)

>  <Scale unit>
%

>  <inhibition>
1.03

$$$$
>  <Smiles record>
O=C(CSc1nc2ccc([N+](=O)[O-])cc2[nH]1)c1ccc(Cl)cc1

>  <System tested>
Transitional endoplasmic reticulum ATPase (Homo sapiens)

>  <Scale unit>
%

>  <inhibition>
2.81

$$$$
>  <Smiles record>
CN1CCC(=NNC(=O)c2ccc(N(Cc3ccc(Cl)cc3)S(C)(=O)=O)cc2)CC1

>  <System tested>
Transitional endoplasmic reticulum ATPase (Homo sapiens)

>  <Scale unit>
%

>  <inhibition>
-1.22

$$$$
>  <Smiles record>
CN(CC(=O)NCCc1ccccc1)S(=O)(=O)c1cnc[nH]1

>  <System tested>
Transitional endoplasmic reticulum ATPase (Homo sapiens)

>  <Scale unit>
%

>  <inhibition>
-2.11

$$$$

// inhibition value for `Cc1nnc2n1N=C(c1ccc3c(c1)NC(=O)CO3)CS2` : 4.3

###

Target: Transitional endoplasmic reticulum ATPase (Homo sapiens) (UniProt P55072)
Experiment: p97 ATP hydrolysis blockers – biochemical, primary screen (AID 1481);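 also: 0% = DMSO vehicle and 100% = wells lacking enzyme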
Conditions: recombinant p97 ATPase, Kinase-Glo ATP luminescence, 3 h; at 8 µM
Screen size: about 220,000 compounds; about 920 (0.42%) were called active. Cut-off read from the data, not from the text of the source: active = inhibition above about 15%; inactive = the rest. Many of the other results were omitted from the sample, so actives are more common in it than they were.
Answer with one of the outcomes 1 for active, -1 for inactive

Please review the following examples before continuing.
>  <Molecule>
Cc1ccc2nc(-c3ccc(NC(=O)c4cccnc4)cc3)oc2c1

>  <Assigned class>
-1

$$$$
>  <Molecule>
Cc1cc(C)n2nc(C(=O)NC(C)(C)C)nc2n1

>  <Assigned class>
-1

$$$$
>  <Molecule>
CN1CCN(/N=C2/C(=O)Nc3ccc([N+](=O)[O-])cc32)CC1

>  <Assigned class>
-1

$$$$
>  <Molecule>
COc1nc(N(C)C)nc(N2CC(=O)N(CCNS(=O)(=O)c3ccc(C)cc3)C2=N)n1

>  <Assigned class>
-1

$$$$
>  <Molecule>
CCOc1cc(/C=N/O)cc(Br)c1OC

>  <Assigned class>
-1

$$$$
>  <Molecule>
CCOC(=O)N1CCC(NC(=O)COc2cc(=O)n(C)c3ccccc23)CC1

>  <Assigned class>
-1

$$$$

Input: Write down the call the test reported for this molecule. Item: `COc1ccccc1NC(=O)c1cc(Cl)nc2ccccc12`
Output: -1

Input: Write down the call the test reported for this molecule. Item: `Cn1sc(=O)c2cc(S(=O)(=O)NC3CC3)ccc21`
Output: -1

Input: Write down the call the test reported for this molecule. Item: `COc1cc(/C=C2/C(=O)NN(c3ccc(F)cc3)C2=O)cc([N+](=O)[O-])c1O`
Output: -1

Origin of the recorded values: PubChem BioAssay AID1481
